Below, each entry is listed with its recorded Max MFI.
- tested.target: T1, CD73 on the surface of human cells (human, UniProt P21589 27-549)
- T1 construct: whole, on cells; The cell line of each value is named under assay or readout; also called CD73 on the surface of tumor cells; CD73 enzyme on the surface of MDA-MB-231 cells
- T1 sequence (looked up): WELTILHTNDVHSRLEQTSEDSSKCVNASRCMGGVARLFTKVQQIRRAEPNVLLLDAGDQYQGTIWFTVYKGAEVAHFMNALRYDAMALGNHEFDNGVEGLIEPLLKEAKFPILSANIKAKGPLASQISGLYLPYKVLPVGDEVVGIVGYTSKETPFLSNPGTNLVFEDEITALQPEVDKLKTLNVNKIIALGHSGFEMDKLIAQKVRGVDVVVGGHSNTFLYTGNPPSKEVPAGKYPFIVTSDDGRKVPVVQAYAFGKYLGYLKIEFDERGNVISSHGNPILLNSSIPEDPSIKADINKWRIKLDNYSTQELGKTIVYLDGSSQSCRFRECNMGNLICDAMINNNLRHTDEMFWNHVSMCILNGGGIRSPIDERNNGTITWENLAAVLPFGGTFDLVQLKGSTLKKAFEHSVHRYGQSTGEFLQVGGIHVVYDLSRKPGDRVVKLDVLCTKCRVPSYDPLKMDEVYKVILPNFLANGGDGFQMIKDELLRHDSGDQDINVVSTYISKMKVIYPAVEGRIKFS
- protocol.text: Flow cytometry on MDA-MB-231 cells, PE-labelled secondary antibody [panel A]
measurement.label: Max MFI (MFI)

binder	measurement.label	readout.units	experimental.result
chimeric nanobody 4-D04 (Fc fusion, Human-alpaca chimeric antibody) VHH: QLQLVESGGGLVQPGGSLRLSCAASGFTLDYYNIGWFRQAPGKEREGVSCISSSEGSTYYADSVKGRFTISRDNAKNTVYLQMNSLKPEDTAVYYCAADRYYYCSLHVSQYDYWGQGTLVTVSS	Max MFI	MFI	79300
chimeric nanobody 4-B02 (Fc fusion, Human-alpaca chimeric antibody) VHH: EVQLVESGGGLVQPGGSLRLSCAASGFPLDYYSIGWFRQAPGKEREGVSCIGSSDGSTYYADSVKGRFTISRDNAENTVWLQMNSLKPEDTAVYYCAALKYYYCSGHEAIYDYWGQGTQVTVSG	Max MFI	MFI	69500
chimeric nanobody 3-D7 (Fc fusion, Human-alpaca chimeric antibody (VHH on hIgG1 Fc); Only the VHH is tied to the tested molecule; 37-39 exist for 3-D7-FC1/FC2/FC3; also called original antibody 3-D7) VHH: QRQLVESGGGLVQPGGSLRLSCAASGFLLDYYVIGWFRQAPGKEREGVSCISGSDRSTYYADSVKGRFTISRDNAKNTVYLQMNSLKPEDTAVYFCAADPSPVTVQAMCLPRFPVPYWGQGTQVTVST	Max MFI	MFI	69600
chimeric nanobody 5-E11 (Fc fusion, Human-alpaca chimeric antibody (VHH on hIgG1 Fc); Only the VHH is tied to the tested molecule; also called original antibody 5-E11) VHH: ALQLVESGGGLVQPGGSLRLSCEVSGFTLDYYNIGWFRQAPGKEREGVSCSSNSGGSTYYADSVKGRFTISRDNAKNTVYLQMNSLKPEDTGVYYCAAYRGWHPSLDARVYDYWGQGTEVTVSS	Max MFI	MFI	64500

Values from patent US20250382376A1
